target: CDK2 (UniProt P24941); test: Enzyme Assay
MEASURED_PROPERTY: Ki (µM)
Write the number in µM without appending the unit.

Give me measured Ki, please, for this molecule: `Clc1ccc(Nc2nccc(-c3nccs3)n2)cn1`
5.5

====

IC50: recorded values
molecular target: CDK2 (UniProt P24941); assay: Enzyme Assay

Here's what some known entries look like.
Give me measured IC50, please, for this compound: `Cc1nc(-c2ccnc(Nc3ccc(Cl)nc3)n2)sc1C`
> 10 µM

Give me measured IC50, please, for this compound: `COc1ccc(Nc2nccc(-c3nc(C)c(C)s3)n2)cn1`
> 10 µM

Continuing:
Give me measured IC50, please, for this compound: `Clc1ccc(Nc2nccc(-c3nccs3)n2)cn1`
> 50 µM

Give me measured IC50, please, for this compound: `COc1ccc(Nc2nccc(-c3nccs3)n2)cn1`
> 100 µM

Give me measured IC50, please, for this compound: `CCOC(=O)c1sc(-c2ccnc(Nc3ccc(Cl)cc3)n2)nc1O`
> 10 µM

====

molecular target: CDK2 (UniProt P24941); experiment: Enzyme Assay
MEASURED_PROPERTY: Ki

Identify measured Ki obtained with CDK2 (UniProt P24941) for `Clc1ccc(Nc2nccc(-c3nccs3)n2)cn1` .
> 50 µM
